Assay: Investigation on solvent for crystallization: whether Compound A is dissolved in a solvent
Format: physicochemical
Settings: organic solvent or mixture, thermodynamic from solid; solvent carbon tetrachloride; 3 ml solvent to 50 mg; read-out: Solubility (*1)
Method: (1) By adding 3 ml of a solvent to 50 mg of Compound A, it was investigated whether Compound A is dissolved or not. The results of the (1) described above are shown in the column of *1 of Table 2 and the results of the (2) described above are shown in the column of *2 of Table 2.
endpoint name: solubility

Tell me the measured solubility of Cc1oc(=O)oc1CN1CCN(c2cc3c(cc2F)c(=O)c(C(=O)O)c2n3C(C)S2)CC1 (stereo not shown) , please. ≤ 16.7 mg/mL

---

experiment: Investigation on solvent for crystallization: whether Compound A is dissolved in a solvent; assay type: physicochemical; details: organic solvent or mixture, thermodynamic from solid; solvent aniline; 3 ml solvent to 50 mg; read-out: Solubility (*1)
endpoint name: solubility

Tell me the measured solubility of Cc1oc(=O)oc1CN1CCN(c2cc3c(cc2F)c(=O)c(C(=O)O)c2n3C(C)S2)CC1 (stereo not shown) , please. > 16.7 mg/mL

---

test: Investigation on solvent for crystallization: whether Compound A is dissolved in a solvent; assay type: physicochemical; settings: organic solvent or mixture, thermodynamic from solid; solvent cresol; 3 ml solvent to 50 mg; read-out: Solubility (*1)
endpoint name: solubility

Tell me the measured solubility of Cc1oc(=O)oc1CN1CCN(c2cc3c(cc2F)c(=O)c(C(=O)O)c2n3C(C)S2)CC1 (stereo not shown) , please. ≤ 16.7 mg/mL

---

test: Investigation on solvent for crystallization: whether Compound A is dissolved in a solvent; format: physicochemical; conditions: organic solvent or mixture, thermodynamic from solid; solvent xylene; 3 ml solvent to 50 mg; read-out: Solubility (*1)
endpoint name: solubility

Tell me the measured solubility of Cc1oc(=O)oc1CN1CCN(c2cc3c(cc2F)c(=O)c(C(=O)O)c2n3C(C)S2)CC1 (stereo not shown) , please. ≤ 16.7 mg/mL

---

test: Investigation on solvent for crystallization: whether Compound A is dissolved in a solvent; assay type: physicochemical; settings: organic solvent or mixture, thermodynamic from solid; solvent isopropyl acetate; 3 ml solvent to 50 mg; read-out: Solubility (*1)
endpoint name: solubility

Tell me the measured solubility of Cc1oc(=O)oc1CN1CCN(c2cc3c(cc2F)c(=O)c(C(=O)O)c2n3C(C)S2)CC1 (stereo not shown) [Compound A] , please. ≤ 16.7 mg/mL

---

experiment: Investigation on solvent for crystallization: whether Compound A is dissolved in a solvent; type: physicochemical; settings: organic solvent or mixture, thermodynamic from solid; solvent ligroin; 3 ml solvent to 50 mg; read-out: Solubility (*1)
endpoint name: solubility

Tell me the measured solubility of Cc1oc(=O)oc1CN1CCN(c2cc3c(cc2F)c(=O)c(C(=O)O)c2n3C(C)S2)CC1 (stereo not shown) , please. ≤ 16.7 mg/mL

---

assay: Investigation on solvent for crystallization: whether Compound A is dissolved in a solvent; type: physicochemical; settings: organic solvent or mixture, thermodynamic from solid; solvent tetrachloroethylene; 3 ml solvent to 50 mg; read-out: Solubility (*1)
endpoint name: solubility

Tell me the measured solubility of Cc1oc(=O)oc1CN1CCN(c2cc3c(cc2F)c(=O)c(C(=O)O)c2n3C(C)S2)CC1 (stereo not shown) [Compound A] , please. ≤ 16.7 mg/mL
